# PROCEDURE TEXT: Half life in rat at 1 mg/kg, iv
# Format: ADME, organism-based
# CONDITION PARAMETERS: in vivo
QUANTITY NAME: half-life

Hello, please tell me recorded half-life for this one: "O=C(COCCc1cnn[nH]1)N1Cc2cnc(NC3Cc4ccccc4C3)nc2C1" 1.14 h

###

# PROCEDURE TEXT: AUC in rat at 10 mg/kg, po administered as single dose
# Format: ADME, organism-based
# CONDITION PARAMETERS: in vivo
QUANTITY NAME: AUC (µM·h)
Please give a number only; it is taken to be in µM·h.

Supply AUC value. Item: "O=C(COCCc1cnn[nH]1)N1Cc2cnc(NC3Cc4ccccc4C3)nc2C1" 3.44

###

# PROCEDURE TEXT: Volume of distribution at steady state in rat at 1 mg/kg, iv
# Format: ADME, organism-based
# CONDITION PARAMETERS: in vivo, read-out: Vdss
QUANTITY NAME: Vd (L/kg)
Numbers only; they are read as L/kg.

State its Vd: "O=C(COCCc1cnn[nH]1)N1Cc2cnc(NC3Cc4ccccc4C3)nc2C1" 1.4
